Reference for the values: patent US20230183713A1

Biological target: T1, Cre recombinase monomer with E176M mutation
T1 chain: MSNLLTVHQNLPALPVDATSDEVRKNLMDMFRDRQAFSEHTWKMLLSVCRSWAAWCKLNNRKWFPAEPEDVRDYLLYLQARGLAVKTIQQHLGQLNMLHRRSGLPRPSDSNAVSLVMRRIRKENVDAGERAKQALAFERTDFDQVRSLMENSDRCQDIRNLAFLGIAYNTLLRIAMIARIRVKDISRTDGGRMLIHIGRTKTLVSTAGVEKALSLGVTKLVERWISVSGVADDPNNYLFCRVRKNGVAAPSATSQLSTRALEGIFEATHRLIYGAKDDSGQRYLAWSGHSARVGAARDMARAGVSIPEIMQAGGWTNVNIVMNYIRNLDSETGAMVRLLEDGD
In this section we review reported Median dimer activity (recombination on loxP) values for a set of proteins.
Give just the numeric value; % need not be written.

Cre recombinase monomer with R173M mutation (protein) MSNLLTVHQNLPALPVDATSDEVRKNLMDMFRDRQAFSEHTWKMLLSVCRSWAAWCKLNNRKWFPAEPEDVRDYLLYLQARGLAVKTIQQHLGQLNMLHRRSGLPRPSDSNAVSLVMRRIRKENVDAGERAKQALAFERTDFDQVRSLMENSDRCQDIRNLAFLGIAYNTLLMIAEIARIRVKDISRTDGGRMLIHIGRTKTLVSTAGVEKALSLGVTKLVERWISVSGVADDPNNYLFCRVRKNGVAAPSATSQLSTRALEGIFEATHRLIYGAKDDSGQRYLAWSGHSARVGAARDMARAGVSIPEIMQAGGWTNVNIVMNYIRNLDSETGAMVRLLEDGD has a reported Median dimer activity (recombination on loxP) of 39

Cre recombinase monomer with R173Q mutation (protein) MSNLLTVHQNLPALPVDATSDEVRKNLMDMFRDRQAFSEHTWKMLLSVCRSWAAWCKLNNRKWFPAEPEDVRDYLLYLQARGLAVKTIQQHLGQLNMLHRRSGLPRPSDSNAVSLVMRRIRKENVDAGERAKQALAFERTDFDQVRSLMENSDRCQDIRNLAFLGIAYNTLLQIAEIARIRVKDISRTDGGRMLIHIGRTKTLVSTAGVEKALSLGVTKLVERWISVSGVADDPNNYLFCRVRKNGVAAPSATSQLSTRALEGIFEATHRLIYGAKDDSGQRYLAWSGHSARVGAARDMARAGVSIPEIMQAGGWTNVNIVMNYIRNLDSETGAMVRLLEDGD has a reported Median dimer activity (recombination on loxP) of 32

Cre recombinase monomer with R173C mutation (protein) MSNLLTVHQNLPALPVDATSDEVRKNLMDMFRDRQAFSEHTWKMLLSVCRSWAAWCKLNNRKWFPAEPEDVRDYLLYLQARGLAVKTIQQHLGQLNMLHRRSGLPRPSDSNAVSLVMRRIRKENVDAGERAKQALAFERTDFDQVRSLMENSDRCQDIRNLAFLGIAYNTLLCIAEIARIRVKDISRTDGGRMLIHIGRTKTLVSTAGVEKALSLGVTKLVERWISVSGVADDPNNYLFCRVRKNGVAAPSATSQLSTRALEGIFEATHRLIYGAKDDSGQRYLAWSGHSARVGAARDMARAGVSIPEIMQAGGWTNVNIVMNYIRNLDSETGAMVRLLEDGD has a reported Median dimer activity (recombination on loxP) of 27

Cre recombinase monomer with R173F mutation (protein) MSNLLTVHQNLPALPVDATSDEVRKNLMDMFRDRQAFSEHTWKMLLSVCRSWAAWCKLNNRKWFPAEPEDVRDYLLYLQARGLAVKTIQQHLGQLNMLHRRSGLPRPSDSNAVSLVMRRIRKENVDAGERAKQALAFERTDFDQVRSLMENSDRCQDIRNLAFLGIAYNTLLFIAEIARIRVKDISRTDGGRMLIHIGRTKTLVSTAGVEKALSLGVTKLVERWISVSGVADDPNNYLFCRVRKNGVAAPSATSQLSTRALEGIFEATHRLIYGAKDDSGQRYLAWSGHSARVGAARDMARAGVSIPEIMQAGGWTNVNIVMNYIRNLDSETGAMVRLLEDGD has a reported Median dimer activity (recombination on loxP) of 38
